- TESTED_SYSTEM: T1, human amylin receptor 3 (AMY3) (human, UniProt P30988 25-474; O60896 24-148)
- T1 construct: whole, on cells; the cAMP assay used the whole cells; also called AMY3 receptor; human AMY3 receptor
- T1 sequence (looked up) 1: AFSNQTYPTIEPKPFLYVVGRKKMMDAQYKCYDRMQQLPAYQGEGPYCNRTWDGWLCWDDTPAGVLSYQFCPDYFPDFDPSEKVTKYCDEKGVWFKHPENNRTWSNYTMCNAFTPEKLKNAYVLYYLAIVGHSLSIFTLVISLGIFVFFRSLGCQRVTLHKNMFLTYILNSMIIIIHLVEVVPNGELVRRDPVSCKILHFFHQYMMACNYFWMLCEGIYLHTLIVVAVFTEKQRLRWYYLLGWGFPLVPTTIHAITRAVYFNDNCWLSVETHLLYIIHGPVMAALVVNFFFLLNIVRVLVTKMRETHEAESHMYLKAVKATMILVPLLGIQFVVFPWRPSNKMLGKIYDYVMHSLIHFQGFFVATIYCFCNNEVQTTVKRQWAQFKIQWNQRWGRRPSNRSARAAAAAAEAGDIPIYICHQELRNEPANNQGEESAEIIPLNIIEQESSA
- T1 sequence (looked up) 2: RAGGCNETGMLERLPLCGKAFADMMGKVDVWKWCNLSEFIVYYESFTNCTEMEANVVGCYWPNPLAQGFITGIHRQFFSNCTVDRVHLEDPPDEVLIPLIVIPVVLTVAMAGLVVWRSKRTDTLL
- MEASUREMENT_NOTES: displacement of 125I-rat amylin from crude membranes of HEK293 cells expressing human AMY3 (hCalcR + RAMP3)
No end group written: not given here.
PARAMETER_MEASURED: IC50 (nM)

Example entries and their recorded answers appear below.
BINDER	IC50 (nM)
CNTATCATQRLANFLVHSSNNFGPK(mPEG40KD)LPPTNVGSNTY-NH2 (ends and bridges not checked, also called Compound 29) [Cmpd 29, [K^26(mPEG40KD)]-Cmpd 12]	60
CNTATCATQRLANFLVHSSNNFGPILPPTK(mPEG40KD)VGSNTY-NH2 (ends and bridges not checked, also called Compound 30) [Cmpd 30, [K^31(mPEG40KD)]-Cmpd 13]	80
CNTATCATQRLANFLVHSSNNFGK(mPEG40KD)ILPPTNVGSNTY-NH2 (ends and bridges not checked, also called Compound 33) [Cmpd 33, [K^25(mPEG40KD)]-Cmpd 15]	48

I = CNTATCATQRLANFLVK(mPEG40KD)SSNNFGPILPPTNVGSNTY-NH2 (ends and bridges not checked, also called Compound 40) [Cmpd 40, [K^18(mPEG40KD)]-Cmpd 37]
II = CNTATCATQRLANFLVHSSNNFGPILK(mPEG40KD)PTNVGSNTY-NH2 (ends and bridges not checked, also called Compound 35) [Cmpd 35, [K^28(mPEG40KD)]-Cmpd 17]
III = CNTATCATQRLANFLVHSSNNFGPIK(mPEG40KD)PPTNVGSNTY-NH2 (ends and bridges not checked, also called Compound 34) [Cmpd 34, [K^27(mPEG40KD)]-Cmpd 16]
IV = CNTATCATQRLANFLVHSSNNFGPILPPTNVGSK(mPEG40KD)TY-NH2 (ends and bridges not checked, also called Compound 42) [Cmpd 42, [K^35(mPEG40KD)]-Cmpd 39]
Lookup: Sort entries by IC50 from minimum to maximum value. // respond by listing labels in the order requested
Found: II, III, IV, I
(II: 46 nM, III: 87 nM, IV: 143 nM, I: 238 nM)
